Reported metric: melting point

Here are 5 molecules together with their reported answers.
O=C(NCC1(O)CCCCCC1)c1cc(-c2cccnc2C(=O)O)ccc1Cl ... 95 to 100 °C
COc1cccc(N(C)C(=O)Oc2ccc(C(C)C)cc2)n1 ... 64 to 65 °C
CC(C)(C)OC(=O)N[C@@H](CC1CCCCC1)[C@@H](O)[C@@H](O)C1CC1 ... 83 to 85 °C
CC(C)(C)OC(=O)N1CCC(c2ccc(C(=O)N3CCc4cc(S(C)(=O)=O)ccc43)nc2)CC1 ... 202 to 205 °C
CC(C)(C)C1=C(c2cc(O)c3nc(-c4ccccc4)oc3c2)OCC1(C)C ... 160 to 161 °C

Q: Bench note: what melting point did O=C(/C=C/c1cccc(-c2cccc([N+](=O)[O-])c2)c1)Nc1ccc(CN2CCCCC2)cc1 show?
A: 178 to 179 °C

Q: Which melting point is reported for this molecule? N#Cc1nn(-c2c(Cl)cc(C(F)(F)F)cc2Cl)c(N)c1-c1ccc(Br)cc1
A: 242 to 244 °C

Q: If you can, please state the reported melting point value of O=C(O)C1CCCc2c1ccc1c2OCO1 (stereo not drawn) .
A: 225 to 257 °C

====

In this section, each of the molecules is paired with its reported melting point.

Cc1cccc(C2(O)c3cc(NC(=O)CC(C)(C)C)c(C)c(C)c3OC2(C)C)c1 (configuration not stated) ... 113 to 114 °C
CCOCNC(=O)c1cc(OC)cc(Oc2cccc(C(F)(F)F)c2)n1 ... 44 to 47 °C
Cc1c(O)c(C)c(CS)c(C)c1CS ... 159 °C
Cc1cccc(C)c1COc1cc(C(=O)O)cc2c1nc(C)n2C ... 285 to 286 °C
CN(C(=O)c1ccc(Cl)cc1)c1ccccc1CCCC(C(=O)O)C(=O)O ... 117 to 118 °C

Q: Data request, read-out melting point, for COc1cc2c(c3c1OC(C)(C)C3)C(c1ccccc1)=NC(C)(C)C2
A: 128 to 129 °C

Q: // query melting point value for entry CC(=O)c1cn(Cc2ccccc2)c(=O)[nH]c1=O
A: 196 to 197 °C

Q: Which melting point value is on record for CCOc1cccc(C(=O)N2CCc3cc(O)ccc3C2)c1 ?
A: 150 to 151 °C

Q: Requested field: melting point. Item: Cc1nc2c(N)nc3cc(OCCC4CCN(C(=O)NC5CCCCC5)CC4)ccc3c2n1CC(C)C
A: 214 to 216 °C

Q: May I ask what melting point has been recorded for Cc1oc(C)c(C(=O)OC2CC(C)(C)N(C)C(C)(C)C2)c1C ?
A: 55 to 56 °C

Q: Would you kindly share the measured melting point for CCOC(=O)c1cn(C2CCCCC2)c2cc(C#Cc3cc(Cc4cnc(N)nc4N)cc(OC)c3OC)ccc2c1=O ?
A: 228 to 230 °C

====

Measured melting point, listed per entry for reference.

Recorded results for 3 compounds are shown here.
CCCc1nn(C)c2c(=O)n(CCCOc3ccc(OC(C)(C)C(=O)O)cc3)cnc12 ... 136 to 138 °C
CC(=O)c1cccc(Oc2ncccc2NC(=O)Cc2ccc(C(C)(C)O)cc2)c1 ... 85 to 87 °C
OCc1cc2ccc3ccc4ccccc4c3c2o1 ... 125 to 126 °C

Q: Requested read-out: melting point. Entry: COc1ccc(S(=O)(=O)Nc2ccccc2OC)cc1
A: 85.5 to 87 °C

Q: Consider the compound shown here: CCN1C(=O)C(C)(C)C(=O)N(C)c2cc(OCCCN(CCc3cccnc3)C(=O)c3ccncc3)ccc21 What is its recorded melting point?
A: 88.1 to 92.2 °C

====

Listing of recorded melting point by entry.

COc1ccccc1[C@H]1CC[C@@H](c2ccccc2)N1C(=O)CNC(=O)Nc1cccc(CC(=O)O)c1 (racemic) ... 140 °C
C#Cc1cccc(NC(=O)c2cc(-c3ccc(F)cc3F)ccc2O)c1 ... 215 to 216 °C

Q: Query (molecule): O=C1CCN2C(=O)OCc3cccc1c32 ; field requested: melting point
A: 130 to 131 °C

Q: Quick one: melting point of CON(C)C(=O)Nc1ccc(CN2OCCC(C)(C)C2=O)c(Cl)c1 ?
A: 116 to 118 °C

Q: Consider the molecule shown here: CC(Br)c1ccc(-c2onc3ccccc23)cc1 (stereo not drawn) What is its recorded melting point?
A: 106 to 108 °C

Q: // returns reported melting point for input COc1cc(C=CC(=O)Nc2cnc3c(C)cc(C)cc3c2-c2ccccc2Cl)ccc1OC(C)=O
A: 174 to 175 °C

Q: Item Nc1cc(C(=O)O)cc(NCc2ccccc2)c1-c1ccccc1 has what recorded melting point?
A: 179 to 181 °C

Q: Would you mind telling me what melting point value was observed for O=S(=O)(c1ccccc1)N1CCC(C(O)(c2ccc(F)c(F)c2)c2ccc(F)c(F)c2)CC1 ?
A: 152 to 154 °C

====

Reported metric: melting point (°C)

O=[N+]([O-])c1c(Cl)cccc1NCC(O)CO (centres undefined) ... 126
CCc1cc2c(s1)S(=O)(=O)NC2=O ... 143

====

Reported metric: melting point

Q: Dear colleague, I am looking for the recorded melting point of the following compound: COc1cc2c(cc1OC)C(=CN1CCN(C)CC1)C(=O)N2
A: 154 to 156 °C

Q: Fill in the blank: the reported melting point of Cc1oc(Cc2cccc(Br)c2)c(C(=O)c2cc(C(C)C)c(OS(=O)(=O)c3ccc(C(=O)O)c(O)c3)c(C(C)C)c2)c1C is ____.
A: 148 °C

Q: Consider the compound shown here: COc1ccc(-c2c(Cl)c(CN3CCN(C(C)=O)CC3)nc3sc4c(c23)CCN(Cc2ccccc2)C4)cc1OC What is its recorded melting point?
A: 183 to 184 °C

Q: Looking for the measured melting point of O=C(O)COc1cccc2c(CC(O)CCC(c3ccccc3)c3ccccc3)coc12 (stereo not given) , can you help?
A: 155 to 157 °C

Q: Item under review: CN(C)CCC(=O)Nc1cccc([N+](=O)[O-])c1 . Reported melting point?
A: 80 to 81 °C

====

List of melting point values.

Cc1ccc2c(O)c(-c3cccc(Oc4ccccc4)c3)c(=O)[nH]c2c1 ... 299 to 300 °C

Q: Any idea what its melting point is? The compound is CCc1ccc2cc(OC)cc(NC(C)CCCN)c2n1 (centres undefined)
A: 111 to 114 °C

Q: Query: melting point; subject: O=C(O)c1ccc(C(c2ccccc2)(c2ccc(C(=O)O)c(C(=O)O)c2)C(F)(F)F)cc1C(=O)O
A: 210 to 213 °C

Q: Given COC(=O)c1cc(NC(=O)c2ccnc(C)c2)c2cc(Cc3ccc(F)cc3)cnc2c1O , state its recorded melting point.
A: 229 to 230 °C

====

Parameter melting point: see the listing below.

Cc1c2c(c(Cl)n1C)NC(=O)CN=C2c1ccccc1 ... 195 °C

Q: Value lookup for melting point; key = CCOc1ccccc1-c1ccc(C(N)=O)c(=O)[nH]1
A: 218 to 220 °C

Q: Item O=C(O)Cc1c(Sc2ccccc2)c2cc(F)ccc2n1Cc1ccc(Cl)cc1 has what recorded melting point?
A: 168 °C

Q: Would you kindly share the measured melting point for Cc1ccc([C@@H](O)[C@H](Br)C(=O)N2C(=O)O[C@H](c3ccccc3)[C@@H]2C)cc1 ?
A: 139 °C

Q: Given the entry CNc1c(SC(F)(F)F)c(C#N)nn1-c1c(Cl)cc(C(F)(F)F)cc1Cl , report its measured melting point.
A: 208 to 210 °C

Q: Query: melting point; subject: C=CCOc1cc(-n2c(OC)nc(C(F)(F)C(F)(F)F)cc2=O)c(F)cc1Cl
A: 82 to 83 °C

Q: I have this compound here, Cc1c(C(=O)Cl)ccc(S(C)(=O)=O)c1-c1ccon1 , and I need its recorded melting point.
A: 85 to 88 °C

Q: If you can, please state the reported melting point value of OCc1cc2ccnc(Cl)c2[nH]1 .
A: 185 to 187 °C

Q: Which value of melting point has been reported for O=C1NC(Cc2cccc(OC(F)(F)C(F)F)c2)C(c2ccc(Oc3ccccc3)cn2)O1 (centres undefined) in the records?
A: 87 to 88 °C

====

Measured melting point accompanies every entry in the list below.

Observe how each entry below is paired with its result.
CC(CCC(O)C(C)(C)O)C1CCC2C3C(O)CC4CC(O)CCC4(C)C3CC(O)C12C (stereo not given) ... 199 to 200 °C
Cc1cc(-n2ccnc2)ccc1N ... 131 to 134 °C
CON=Cc1ncn2c1[C@@H]1CCCN1C(=O)c1c(Cl)cccc1-2 ... 194 to 195 °C
COc1ccc(C(=O)c2coc(C(=O)O)cc2=O)cc1 ... 185 to 190 °C
CC(C)n1cnc2c(Nc3ccc([N+](=O)[O-])cc3)nc(Cl)nc21 ... > 260 °C

Q: Which measured melting point value corresponds to CC(C)C(NC(=O)OCc1ccccc1)C(=O)NC(Cc1ccccc1)C(O)C(Cc1ccccc1)NC(=O)C(NC(=O)OCc1cccnc1)C(C)C (stereo not given) ?
A: 177 to 178 °C

Q: Which melting point reading was recorded for the compound CS(=O)(=O)c1ccc(-c2ccc(S(=O)(=O)CC(CO)N(O)C=O)cc2)cc1 (stereo not given) ?
A: 165 to 167 °C
